experimental parameters: 328.15 K; 101.33 kPa; Liquid; Vibrating tube method
Numbers after ± are expanded uncertainties.
mass density by entry:
test readout: mass density

1. CCCCCCn1cc[n+](CCC#N)c1.[Br-] [3-(2-cyanoethyl)-1-hexyl-1H-imidazolium bromide]	1209.1 ± 1.1 kg/m3
2. CCCCCCCCCCn1cc[n+](CCC#N)c1.[Br-] [3-(2-cyanoethyl)-1-decyl-1H-imidazolium bromide]	1118.2 ± 1 kg/m3
3. CCCCCCCCn1cc[n+](CCC#N)c1.[Br-] [3-(2-cyanoethyl)-1-octyl-1H-imidazolium bromide]	1156.2 ± 1.1 kg/m3
4. CCCCn1cc[n+](CCC#N)c1.[Br-] [1-butyl-3-(2-cyanoethyl)-1H-imidazolium bromide]	1284.4 ± 1.1 kg/m3
